Tested on: A549/ATCC (NSC lung cancer)
Test: NCI-60 screen (SRB, 48 h)
Conditions: Homo sapiens, A549
The following compounds are shown together with reported GI50 values.
Give the value in µM but do not write µM after it.

structure	valueUnits	GI50
CC1(C)NCCC[C@]2(C)[C@H]3C=CC4=C5C[C@@](C)(CO)CC[C@]5(C)CC[C@@]4(C)[C@]3(C)CC[C@@H]12	µM	1.89
CC(C)=C1CCC=C2CC[C@]3(C)[C@H](CC[C@@H]4[C@@]5(C)CCCNC(C)(C)[C@@H]5CC[C@]43C)[C@H]21	µM	1.79
C[C@H]1[C@H](C)CC[C@]2(C(=O)Nc3ccc4ncccc4c3)CC[C@]3(C)C(=CC[C@@H]4[C@@]5(C)CCCNC(C)(C)[C@@H]5CC[C@]43C)[C@H]12	µM	1.81
C[C@H]1[C@H](C)CC[C@]2(CO)CC[C@]3(C)C(=CC[C@@H]4[C@@]5(C)CCCNC(C)(C)[C@@H]5CC[C@]43C)[C@H]12	µM	1.74

Okay, next one:
Lookup: Quick check: GI50 of Cc1ccc(S(=O)(=O)OC[C@]23CCC(C)(C)C[C@H]2C2=CC[C@@H]4[C@@]5(C)CCCNC(C)(C)[C@@H]5CC[C@@]4(C)[C@]2(C)CC3)cc1 ?
Found: 1.83
